- test.system: T1, Fc-tagged human PD-L1 extracellular domain (SinoBiological, cat. 10084-H02H) (human, UniProt Q9NZQ7 19-238)
- T1 construct: extracellular domain; also called hPD-L1; not shown: Fc tag of the bought protein
- T1 sequence (Q9NZQ7 19-238): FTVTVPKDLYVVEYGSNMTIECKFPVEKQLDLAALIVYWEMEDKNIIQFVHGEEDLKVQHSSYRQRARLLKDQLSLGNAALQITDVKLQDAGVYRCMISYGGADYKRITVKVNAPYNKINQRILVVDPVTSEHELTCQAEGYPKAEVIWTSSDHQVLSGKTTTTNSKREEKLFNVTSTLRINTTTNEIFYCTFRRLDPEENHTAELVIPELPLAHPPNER
- experiment.description: SPR, captured Fc-PD-L1 ECD, scFv analyte, kinetic
measurement.name: koff

Lookup result for PRO1076 (scFv, V domains shown, also called 33-03-G02 VL-G109A) VH: QVQLQESGPGLVKPSETLSLTCKVSGFSFSSGYDMCWIRQPPGKGLEWIGCVVAGSVDITYYASWAKGRVTISVDSSKNQFSLKLSSVTAADTAVYYCARKDAYSDAFNLWGQGTLVTVSS VL: DIQMTQSPSSLSASVGDRVTITCQASQSINDYLAWYQQKPGKAPKLLIYKASTLASGVPSRFSGSGSGTDFTLTISSLQPEDFATYYCQQAYIITDIDNVFGTGTKVTVLG ; measured koff: 0.0135 s⁻¹

Lookup result for PRO830 (scFv, V domains shown, also called 33-03-G02; parental scFv) VH: QVQLQESGPGLVKPSETLSLTCKVSGFSFSSGYDMCWIRQPPGKGLEWIGCVVAGSVDITYYASWAKGRVTISVDSSKNQFSLKLSSVTAADTAVYYCARKDAYSDAFNLWGQGTLVTVSS VL: DIQMTQSPSSLSASVGDRVTITCQASQSINDYLAWYQQKPGKAPKLLIYKASTLASGVPSRFSGSGSGTDFTLTISSLQPEDFATYYCQQGYIITDIDNVFGTGTKVTVLG ; measured koff: 0.000139 s⁻¹

Lookup result for PRO1075 (scFv, V domains shown, also called 33-03-G02 VL-Q108A) VH: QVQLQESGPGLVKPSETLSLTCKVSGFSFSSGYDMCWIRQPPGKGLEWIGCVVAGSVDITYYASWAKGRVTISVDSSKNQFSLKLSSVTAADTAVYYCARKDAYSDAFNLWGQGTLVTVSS VL: DIQMTQSPSSLSASVGDRVTITCQASQSINDYLAWYQQKPGKAPKLLIYKASTLASGVPSRFSGSGSGTDFTLTISSLQPEDFATYYCQAGYIITDIDNVFGTGTKVTVLG ; measured koff: 0.0205 s⁻¹
